system: Klebsiella pneumoniae; assay: Inhibition of VIM-4 in Klebsiella pneumoniae assessed as meropenem antibacterial activity at 4 ug/ml after 16 to 20 hrs by CLSI-based microbroth dilution method (Rvb >= […] ug/ml)
Items are presented alongside their recorded MIC.
recorded_metric: MIC (µg/mL)

{"smiles": "NCc1ccc(CC(=O)N[C@H]2Cc3cccc(C(=O)O)c3OB2O)cc1", "units_symbol": "µg/mL", "observed_result": 4}
{"smiles": "NC[C@H]1CC[C@H](CC(=O)N[C@H]2Cc3cccc(C(=O)O)c3OB2O)CC1", "units_symbol": "µg/mL", "observed_result": 8}
{"smiles": "O=C(O)CN[C@H]1CC[C@H](CC(=O)N[C@H]2Cc3cccc(C(=O)O)c3OB2O)CC1", "units_symbol": "µg/mL", "observed_result": 32}
{"smiles": "O=C(C[C@H]1CC[C@H](N2CCNCC2)CC1)N[C@H]1Cc2cccc(C(=O)O)c2OB1O", "units_symbol": "µg/mL", "observed_result": 32}
{"smiles": "O=C(C[C@H]1CC[C@H](NCc2cnc[nH]2)CC1)N[C@H]1Cc2cccc(C(=O)O)c2OB1O", "units_symbol": "µg/mL", "observed_result": 8}
{"smiles": "NCCNc1ccc(CC(=O)N[C@H]2Cc3cccc(C(=O)O)c3OB2O)cc1", "units_symbol": "µg/mL", "observed_result": 8}
{"smiles": "NCC(=O)N[C@H]1CC[C@H](CC(=O)N[C@H]2Cc3cccc(C(=O)O)c3OB2O)CC1", "units_symbol": "µg/mL", "observed_result": 8}
{"smiles": "N=C(N)NCCN[C@H]1CC[C@H](CC(=O)N[C@H]2Cc3cccc(C(=O)O)c3OB2O)CC1", "units_symbol": "µg/mL", "observed_result": 0.06}
{"smiles": "NCCCN[C@H]1CC[C@H](CC(=O)N[C@H]2Cc3cccc(C(=O)O)c3OB2O)CC1", "units_symbol": "µg/mL", "observed_result": 4}

----------
system: Klebsiella pneumoniae; test: Inhibition of KPC-2/SHV12/TEM-1 in Klebsiella pneumoniae CDC-0361 assessed as cefepime antibacterial activity at 8 ug/ml after 16 to 20 hrs by CLSI-based microbroth dilution method (reference value: […] ug/ml)

{"smiles": "N[C@H]1CC[C@H](CC(=O)N[C@H]2Cc3cccc(C(=O)O)c3OB2O)CC1", "relation": "=", "MIC (ng/mL)": 15}
{"smiles": "NCc1ccc(CC(=O)N[C@H]2Cc3cccc(C(=O)O)c3OB2O)cc1", "relation": "=", "MIC (ng/mL)": 7.9}
{"smiles": "NCCN[C@H]1CC[C@H](CC(=O)N[C@H]2Cc3cccc(C(=O)O)c3OB2O)CC1", "relation": "=", "MIC (ng/mL)": 15}
{"smiles": "CC(=O)N[C@H]1Cc2cccc(C(=O)O)c2OB1O", "relation": "=", "MIC (ng/mL)": 7.9}
{"smiles": "O=C(O)C[C@@H]1CC[C@H](NC(=O)Cc2cccs2)B(O)O1", "relation": ">", "MIC (ng/mL)": 16000}
{"smiles": "NC(=O)[C@@H]1CC[C@@H]2CN1C(=O)N2OS(=O)(=O)O", "relation": "=", "MIC (ng/mL)": 7.9}

----------
system: Klebsiella pneumoniae ATCC BAA-1705; assay: Inhibition of KPC-2 in Klebsiella pneumoniae ATCC BAA 1705 assessed as meropenem antibacterial activity at 4 ug/ml after 16 to 20 hrs by CLSI-based microbroth dilution method (reference value: […] ug/ml)
Recorded MIC values for a group of compounds are listed next.
recorded_metric: MIC (µg/mL)

{"smiles": "C[C@]1(Cn2ccnn2)[C@H](C(=O)O)N2C(=O)C[C@H]2S1(=O)=O", "assay_system": "Klebsiella pneumoniae ATCC BAA-1705", "recorded_metric": "MIC", "observed_result": 8}
{"smiles": "NCCN[C@H]1CC[C@H](CC(=O)N[C@H]2Cc3cccc(C(=O)O)c3OB2O)CC1", "assay_system": "Klebsiella pneumoniae ATCC BAA-1705", "recorded_metric": "MIC", "observed_result": 0.015}
{"smiles": "N[C@H]1CC[C@H](CC(=O)N[C@H]2Cc3cccc(C(=O)O)c3OB2O)CC1", "assay_system": "Klebsiella pneumoniae ATCC BAA-1705", "recorded_metric": "MIC", "observed_result": 0.015}
{"smiles": "NC(=O)[C@@H]1CC[C@@H]2CN1C(=O)N2OS(=O)(=O)O", "assay_system": "Klebsiella pneumoniae ATCC BAA-1705", "recorded_metric": "MIC", "observed_result": 0.015}
{"smiles": "O=C(O)C[C@@H]1CC[C@H](NC(=O)Cc2cccs2)B(O)O1", "assay_system": "Klebsiella pneumoniae ATCC BAA-1705", "recorded_metric": "MIC", "observed_result": 0.03}
{"smiles": "CC(=O)N[C@H]1Cc2cccc(C(=O)O)c2OB1O", "assay_system": "Klebsiella pneumoniae ATCC BAA-1705", "recorded_metric": "MIC", "observed_result": 0.0079}
{"smiles": "NCc1ccc(CC(=O)N[C@H]2Cc3cccc(C(=O)O)c3OB2O)cc1", "assay_system": "Klebsiella pneumoniae ATCC BAA-1705", "recorded_metric": "MIC", "observed_result": 0.0079}
